Exercise: state measured A2.1 for each of the sequences provided.
Target: HLA-A*0201 (HLA-A2.1) (Homo sapiens, UniProt P04439, D140Y/D185E/D98H/E176V/E277Q/G131W/G231S/I119V/I121R/I166T/I218V/L300P/L318F/N151K/N90K/P208A/P217A/Q86G/Q94H/R138H/R169H/T345S)
Experiment: biochemical
Type: binding
Number only, no unit.

[in] Determine from records and report A2.1 for SLHCKPEEA
[out] 0.013

[in] Determine from records and report A2.1 for LVFGIDVKEA
[out] 0.0002

[in] Determine from records and report A2.1 for DLVQEKYL
[out] 0

[in] Determine from records and report A2.1 for SLRVLAAGL
[out] 0.0001

[in] Determine from records and report A2.1 for GLLGDNQI
[out] 0

# credit: patent US9340577B2
